Values compiled from patent US5208344A.

- System: cyclooxygenase
- testName: inhibition of synthesis of cyclooxygenase products TxB2 and PGE2 (rat polymorphonuclear leukocytes)
- Assay type: cell-based
- assayConditions: 10 μM; rat PMN; negative = potentiation of PGE2 synthesis
- Experimental: Peritoneal PMN are obtained from female Wistar rats (150-250 g) that received an i.p. injection of 6% glycogen (10 ml). After 24 hours, rats are killed by CO2 asphysiation and peritoneal cells are harvested by peritoneal lavage using Ca^++ and MG^++ free Hanks' balanced salt solution (HBSS). The peritoneal exudate is centrifuged at 400 g for 10 minutes. […] After chromatography, the areas associated with 5-HETE standard are identified by autoradiography, cut out and quantitated by liquid scintillation. […]
In this section we review reported % Inhibition of CO (as PGE2) values for a set of compounds.
endpointName: % Inhibition of CO (as PGE2) (%)

compound | experimentalTarget | readingUnit | experimentalValue
C[C@H](C(=O)N(C)O)c1ccc2cc(OCc3ccc4ccccc4n3)ccc2c1 [Example 24] | cyclooxygenase | % | 13
CONC(=O)C(C)c1ccc2cc(OCc3ccc4ccccc4n3)ccc2c1 (centres unmarked) [Example 30] | cyclooxygenase | % | -27
CC(C(=O)O)c1ccc2cc(OCc3nc4ccccc4n3C)ccc2c1 (centres unmarked) [Example 3] | cyclooxygenase | % | -29
CC(C(=O)N(C)O)c1ccc2cc(OCc3ccc4ccccc4n3)ccc2c1 (centres unmarked) [Example 23] | cyclooxygenase | % | 17
CC(C)(C(=O)O)c1ccc2cc(OCc3ccc4ccccc4n3)ccc2c1 [Example 22] | cyclooxygenase | % | -28

----------
In this section we review reported inhibition at 25 µM values for a set of compounds.
- experimentalTarget: 5-lipoxygenase (Homo sapiens)
- Construct: Blood is obtained in 50-100 ml quantities from male donors; endogenous in cells; host or cells: human whole blood (leukocytes) from male donors
- testName: inhibition of 5-lipoxygenase in human whole blood (LTB4)
- Type: cell-based
- assayConditions: 25 μM; human whole blood
endpointName: inhibition at 25 µM (%)

compound | readingUnit | experimentalValue
C[C@H](NC(=O)NO)c1ccc2cc(OCc3nc4ccccc4s3)ccc2c1 | % | 52
Cc1ccc(S(=O)(=O)NC(=O)C(C)c2ccc3cc(OCc4ccc5ccccc5n4)ccc3c2)cc1 (stereo not shown) | % | 45
C[C@H](C(=O)O)c1ccc2cc(OCc3nc4ccccc4s3)ccc2c1 | % | 54
C[C@H](C(=O)O)c1ccc2cc(OCc3nc4ccccc4o3)ccc2c1 | % | 22

----------
- experimentalTarget: 5-lipoxygenase (Rattus norvegicus, UniProt P12527)
- Construct: Peritoneal PMN are obtained from female Wistar rats (150-250 g); endogenous in cells; host or cells: rat glycogen-elicited peritoneal polymorphonuclear leukocytes, intact
- Sequence (P12527 1-673): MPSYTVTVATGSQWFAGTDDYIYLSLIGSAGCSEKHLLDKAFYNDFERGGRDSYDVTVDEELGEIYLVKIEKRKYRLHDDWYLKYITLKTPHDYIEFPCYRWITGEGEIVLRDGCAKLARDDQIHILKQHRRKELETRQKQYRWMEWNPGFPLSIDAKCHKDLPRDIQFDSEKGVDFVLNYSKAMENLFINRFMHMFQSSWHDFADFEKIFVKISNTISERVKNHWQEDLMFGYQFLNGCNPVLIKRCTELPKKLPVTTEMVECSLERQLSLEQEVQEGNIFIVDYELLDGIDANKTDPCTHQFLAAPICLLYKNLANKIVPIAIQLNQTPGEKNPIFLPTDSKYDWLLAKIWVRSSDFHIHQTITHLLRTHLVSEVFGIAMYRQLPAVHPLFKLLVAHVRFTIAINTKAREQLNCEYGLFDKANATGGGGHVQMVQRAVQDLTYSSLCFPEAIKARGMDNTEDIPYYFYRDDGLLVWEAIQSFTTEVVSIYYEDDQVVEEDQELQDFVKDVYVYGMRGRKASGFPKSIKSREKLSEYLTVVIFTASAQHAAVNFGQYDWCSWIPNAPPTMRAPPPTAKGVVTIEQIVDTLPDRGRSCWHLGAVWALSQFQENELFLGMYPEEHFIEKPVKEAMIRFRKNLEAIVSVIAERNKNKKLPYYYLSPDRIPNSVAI
- testName: inhibition of 5-HETE synthesis by rat glycogen elicited polymorphonuclear leukocytes
- Type: cell-based
- assayConditions: 10 μM; rat PMN; negative = potentiation of 5-HETE synthesis; read-out: % Inhibition of 5-LO (as 5-HETE)
Rule: inhibition at 10 µM of 90% or more gives 1; anything lower gives -1.

molecule | labelClass
C[C@H](C(=O)O)c1ccc2cc(OCc3ccc4ccccc4n3)ccc2c1 | 1
CC(C(=O)O)c1ccc2cc(OCc3ccc4ccccc4c3)ccc2c1 (stereo not drawn) | 1
Cc1ccc(S(=O)(=O)NC(=O)C(C)c2ccc3cc(OCc4ccc5ccccc5n4)ccc3c2)cc1 (stereo not drawn) | 1
CC(C(=O)O)c1ccc2cc(OCc3ccccc3)ccc2c1 (stereo not drawn) | -1
CCCCOc1ccc2cc(C(C)C(=O)O)ccc2c1 (stereo not drawn) | -1
CCCCCCOc1ccc2cc(C(C)C(=O)O)ccc2c1 (stereo not drawn) | -1
CCCCCOc1ccc2cc(C(C)C(=O)O)ccc2c1 (stereo not drawn) | -1

----------
- experimentalTarget: 5-lipoxygenase (Homo sapiens, UniProt P09917)
- Construct: Blood is obtained in 50-100 ml quantities from male donors; endogenous in cells; host or cells: human whole blood (leukocytes) from male donors
- Sequence (P09917 1-674): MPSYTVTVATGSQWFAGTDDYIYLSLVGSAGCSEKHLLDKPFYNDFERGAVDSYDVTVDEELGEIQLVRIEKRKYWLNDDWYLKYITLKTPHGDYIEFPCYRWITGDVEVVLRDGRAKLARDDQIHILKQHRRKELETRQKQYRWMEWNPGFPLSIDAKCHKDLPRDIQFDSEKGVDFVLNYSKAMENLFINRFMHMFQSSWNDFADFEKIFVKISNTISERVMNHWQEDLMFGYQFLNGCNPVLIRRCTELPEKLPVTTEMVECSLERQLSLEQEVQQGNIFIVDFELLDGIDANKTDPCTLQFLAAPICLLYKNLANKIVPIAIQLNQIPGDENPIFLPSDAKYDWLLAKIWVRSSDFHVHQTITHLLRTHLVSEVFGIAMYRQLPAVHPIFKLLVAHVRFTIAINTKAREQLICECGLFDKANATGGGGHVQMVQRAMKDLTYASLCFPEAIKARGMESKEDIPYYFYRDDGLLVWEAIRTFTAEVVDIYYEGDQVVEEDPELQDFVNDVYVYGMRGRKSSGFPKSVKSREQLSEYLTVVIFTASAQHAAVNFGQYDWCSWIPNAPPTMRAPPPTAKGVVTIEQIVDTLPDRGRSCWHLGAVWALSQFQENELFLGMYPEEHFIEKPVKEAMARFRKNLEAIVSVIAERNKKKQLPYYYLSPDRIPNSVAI
- testName: inhibition of 5-lipoxygenase in human whole blood (LTB4)
- Format: cell-based
- assayConditions: human whole blood; sodium salt hydrate
Counter-ions that a name gives are not always drawn.
endpointName: IC50 (µM)

compound | experimentalValue
C[C@H](C(=O)N(C)O)c1ccc2cc(OCc3nc4ccccc4s3)ccc2c1 [Example 41A, sodium salt hydrate] | 12.2

----------
- Test system: cyclooxygenase
- testName: inhibition of synthesis of cyclooxygenase products TxB2 and PGE2 (rat polymorphonuclear leukocytes)
- Assay type: cell-based
- assayConditions: 10 μM; rat PMN; negative = potentiation of PGE2 synthesis
endpointName: % Inhibition of CO (as PGE2)

compound | experimentalValue
COc1ccc2cc([C@H](C)C(=O)O)ccc2c1 | 85%
CC(C(=O)O)c1ccc2cc(OCc3ccc4ccccc4n3)ccc2c1 (stereo not drawn) | -37%
C[C@H](C(=O)O)c1ccc2cc(OCc3ccc4ccccc4n3)ccc2c1 [Example 17] | 20%
C[C@H](CO)c1ccc2cc(OCc3ccc4ccccc4n3)ccc2c1 | 5%
CCCCCCOc1ccc2cc(C(C)C(=O)O)ccc2c1 (stereo not drawn) | -5%
COC(=O)[C@@H](C)c1ccc2cc(OCc3ccc4ccccc4n3)ccc2c1 | -17%
CC(C(=O)O)c1ccc2cc(OCc3ccc4ccccc4c3)ccc2c1 (stereo not drawn) | -15%
CC(C(=O)O)c1ccc2cc(OCc3csc(-c4ccccc4)n3)ccc2c1 (stereo not drawn) | -11%
CC(C(=O)O)c1ccc2cc(OCc3ccccc3)ccc2c1 (stereo not drawn) | -26%

----------
- Test system: cyclooxygenase
- testName: inhibition of synthesis of cyclooxygenase products TxB2 and PGE2 (rat polymorphonuclear leukocytes)
- Assay type: cell-based
- assayConditions: 10 μM; rat PMN
endpointName: % Inhibition of CO (as TxB2) (%)

compound | experimentalValue
CC(C(=O)O)c1ccc2cc(OCc3ccc4ccccc4n3)ccc2c1 (stereo not shown) | 28
CC(C(=O)O)c1ccc2cc(OCc3ccccn3)ccc2c1 (stereo not shown) | 12
CC(C(=O)O)c1ccc2cc(OCc3nc4ccccc4n3C)ccc2c1 (stereo not shown) | 15
CC(C(=O)O)c1ccc2cc(OCc3ccccc3)ccc2c1 (stereo not shown) | 6

----------
- experimentalTarget: 5-lipoxygenase (Homo sapiens)
- Construct: Blood is obtained in 50-100 ml quantities from male donors; endogenous in cells; host or cells: human whole blood (leukocytes) from male donors
- testName: inhibition of 5-lipoxygenase in human whole blood (LTB4)
- Type: cell-based
- assayConditions: human whole blood
endpointName: IC50 (µM)

compound | experimentalValue
C[C@H](C(=O)N(C)O)c1ccc2cc(OCc3nc4ccccc4s3)ccc2c1 [Example 41, hydrate] | 11.4
CC(C)(NC(=O)NO)c1ccc2cc(OCc3nc4ccccc4s3)ccc2c1 [Example 37] | 50.8
C[C@H](C(=O)N(C)O)c1ccc2cc(OCc3nc4ccccc4o3)ccc2c1 [Example 47] | 2.3
CC(NC(=O)NO)c1ccc2cc(OCc3csc(-c4ccccc4)n3)ccc2c1 (single isomer, unassigned; (-)) [Example 36] | 13.5
C[C@H](C(=O)N(C)O)c1ccc2cc(OCc3nc4ccccc4n3C)ccc2c1 [Example 45] | 1.1
C[C@H](C(=O)N(C)O)c1ccc2cc(OCc3csc(-c4ccccc4)n3)ccc2c1 [Example 39] | 6.9
C[C@H](C(=O)N(C)O)c1ccc2cc(OCc3ccccn3)ccc2c1 [Example 44] | 2
C[C@H](NC(=O)NO)c1ccc2cc(OCc3nc4ccccc4s3)ccc2c1 [Example 38] | 34.4
